ASSAY TEXT: Comparative bioavailability assay in healthy volunteers
Assay type: in vivo
TEST PARAMETERS: male, human, plasma, po, 5 mg, Fasting; single oral dose, Example 1 5 mg, Example 2 7.3 mg; read-out: Cmax, MEAN ± SD
MEASUREMENT KIND: Cmax

MOL | ENDPOINT VALUE
N#Cc1sc(NC(=O)[C@H]2CC[C@@H](C(=O)O)C2)nc1-c1ccccc1 | 187 ng/mL

* * *

Reported moisture content, 55% RH by item:
ASSAY TEXT: Hygroscopicity study by DVS (Dynamic Vapour Sorption)
Assay type: physicochemical
TEST PARAMETERS: DVS, 25° C., 55% RH
MEASUREMENT KIND: moisture content, 55% RH

COMPOUND | ENDPOINT VALUE
N#Cc1sc(NC(=O)[C@H]2CC[C@@H](C(=O)O)C2)nc1-c1ccccc1.NC(=O)c1cccnc1 [Example 4] | 0.165
N#Cc1sc(NC(=O)[C@H]2CC[C@@H](C(=O)O)C2)nc1-c1ccccc1 [Example 1] | 0.3008
N#Cc1sc(NC(=O)[C@H]2CC[C@@H](C(=O)O)C2)nc1-c1ccccc1.O=C(O)c1cc(O)ccc1O [Example 2] | 0.0398
N#Cc1sc(NC(=O)[C@H]2CC[C@@H](C(=O)O)C2)nc1-c1ccccc1.NC(N)=O [Example 3] | 0.0545

* * *

ASSAY TEXT: pKa / ΔpKa of free acid and cocrystal forming compounds
Type: physicochemical
TEST PARAMETERS: cocrystal forming compound; read-out: pKa conjugated base
MEASUREMENT KIND: pKa

COMPOUND | ENDPOINT VALUE
NC(=O)c1cccnc1 [Nicotinamide, 3-pyridinecarboxamide] | 3.4

* * *

ASSAY TEXT: Comparative bioavailability assay in healthy volunteers
Assay type: in vivo
TEST PARAMETERS: male, human, plasma, po, 5 mg, Fasting; single oral dose, Example 1 5 mg, Example 2 7.3 mg; read-out: tmax, median and range
MEASUREMENT KIND: Tmax (h)

MOL | ENDPOINT VALUE
N#Cc1sc(NC(=O)[C@H]2CC[C@@H](C(=O)O)C2)nc1-c1ccccc1 | 2.5

* * *

ASSAY TEXT: Comparative bioavailability assay in healthy volunteers
Assay type: in vivo
TEST PARAMETERS: male, human, plasma, po, 5 mg, Fed (high fat, high calorie meal); single oral dose, Example 1 5 mg, Example 2 7.3 mg; read-out: tmax, median and range
Protocol: Healthy volunteers in this study will be males 18 years of age or older in order to assess the comparative bioavailability of compound of Example 2 versus compound of Example 1, under fasting conditions and to investigate the effect of a high fat, high calorie meal. Compounds will be administered orally in single dose of Example 1 (5 mg) and Example 2 (7.3 mg). The study will have a randomized, open-label, four-fold crossover design. […]

COMPOUND | UNIT STRING | Tmax
N#Cc1sc(NC(=O)[C@H]2CC[C@@H](C(=O)O)C2)nc1-c1ccccc1 [Example 1] | h | 7

* * *

ASSAY TEXT: Comparative bioavailability assay in healthy volunteers
Assay type: in vivo
TEST PARAMETERS: male, human, plasma, po, 5 mg, Fed (high fat, high calorie meal); single oral dose, Example 1 5 mg, Example 2 7.3 mg; read-out: Cmax, geometric mean

COMPOUND | Cmax / ng/mL
N#Cc1sc(NC(=O)[C@H]2CC[C@@H](C(=O)O)C2)nc1-c1ccccc1 [Example 1] | 65.6

The measurements presented in this section are drawn from patent US12384754B2.
